Reference source for all entries: ChEMBL document CHEMBL3044690

- Test system: Amaranthus retroflexus
- experimentSummary: Post-emergence herbicidal activity against Amaranthus retroflexus under greenhouse condition at 1.5 kg/ha applied after expansion of true leaf
- Type: functional

chemicalSmiles | target | Activity [%]
CCOCCOC(=O)/C(C#N)=C(/C)NCc1cnc(Cl)s1 | Amaranthus retroflexus | 100
COCCOC(=O)/C(C#N)=C(/C)NCc1cnc(Cl)s1 | Amaranthus retroflexus | 81
CCOCCOC(=O)/C(C#N)=C(\NCc1ccc(Cl)cc1)C(C)C | Amaranthus retroflexus | 94
CCOCCOC(=O)/C(C#N)=C(\NCc1cnc(Cl)s1)SC | Amaranthus retroflexus | 78
CCOCCOC(=O)/C(C#N)=C(/CC)NCc1cnc(Cl)s1 | Amaranthus retroflexus | 83
CCOCCOC(=O)/C(C#N)=C(\NCc1cnc(Cl)s1)C(C)C | Amaranthus retroflexus | 96

* * *

- System: Amaranthus retroflexus
- experimentSummary: Post-emergence herbicidal activity against Amaranthus retroflexus under greenhouse condition at 750 g/ha applied after expansion of true leaf
- Type: functional
We begin with a simple list: items and their reported Activity.

chemicalSmiles | Activity, %
CCOCCOC(=O)/C(C#N)=C(/C)NCc1cnc(Cl)s1 | 98
CCOCCOC(=O)/C(C#N)=C(\NCc1cnc(Cl)s1)SC | 91
CCOCCOC(=O)/C(C#N)=C(/CC)NCc1cnc(Cl)s1 | 57
CCOCCOC(=O)/C(C#N)=C(\NCc1cnc(Cl)s1)C(C)C | 100

* * *

- Tested on: Amaranthus retroflexus
- experimentSummary: Post-emergence herbicidal activity against Amaranthus retroflexus under greenhouse condition at […] applied after expansion of true leaf
- Assay type: functional
testReadout: Activity (%)

chemicalSmiles | testReadout | resultUnit | measValue
CCOCCOC(=O)/C(C#N)=C(/CC)NCc1cnc(Cl)s1 | Activity | % | 42
CCOCCOC(=O)/C(C#N)=C(\NCc1cnc(Cl)s1)SC | Activity | % | 41
CCOCCOC(=O)/C(C#N)=C(\NCc1cnc(Cl)s1)C(C)C | Activity | % | 67
CCOCCOC(=O)/C(C#N)=C(/C)NCc1cnc(Cl)s1 | Activity | % | 73
